Reference for the values: patent US20120172293A1

# system.name: T1, human Y2 receptor (human, UniProt P49146 1-381)
# T1 construct: whole, on cells; used as membrane fraction of hY2R/CHO cells; also called human NPY2R; hY2R
# T1 sequence (looked up): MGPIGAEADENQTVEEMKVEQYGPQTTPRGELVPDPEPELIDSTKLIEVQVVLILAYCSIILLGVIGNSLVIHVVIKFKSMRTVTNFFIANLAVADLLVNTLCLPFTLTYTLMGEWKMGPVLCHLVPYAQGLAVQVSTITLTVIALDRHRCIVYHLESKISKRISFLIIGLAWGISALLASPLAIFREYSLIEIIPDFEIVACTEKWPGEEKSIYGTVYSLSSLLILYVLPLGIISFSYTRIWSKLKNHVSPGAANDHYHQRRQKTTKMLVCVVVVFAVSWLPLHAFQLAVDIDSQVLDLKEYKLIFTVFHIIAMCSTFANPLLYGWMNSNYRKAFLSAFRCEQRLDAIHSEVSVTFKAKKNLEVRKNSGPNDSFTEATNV
# method.notes: RBA: [125I]-PYY displacement, hY2R/CHO membranes
Non-standard residues stand in square brackets, D forms with d. No end group written: not given here. 4Pal = N[C@@H](Cc1ccncc1)C(=O)O; Cha = N[C@@H](CC1CCCCC1)C(=O)O; 4Amb = NCc1ccc(C(=O)O)cc1; Aib = CC(C)(N)C(=O)O
Parameter IC50 Ratio (vs PYY(3-36)): see the listing below.
Units required after the number.

binder: Ac-S[dP]RT[Cha][Cha]NL[Aib]TRQR[Cha]-NH2 (SMILES CC(=O)N[C@@H](CO)C(=O)N1CCC[C@@H]1C(=O)N[C@@H](CCCNC(=N)N)C(=O)N[C@H](C(=O)N[C@@H](CC1CCCCC1)C(=O)N[C@@H](CC1CCCCC1)C(=O)N[C@@H](CC(N)=O)C(=O)N[C@@H](CC(C)C)C(=O)NC(C)(C)C(=O)N[C@H](C(=O)N[C@@H](CCCNC(=N)N)C(=O)N[C@@H](CCC(N)=O)C(=O)N[C@@H](CCCNC(=N)N)C(=O)N[C@@H](CC1CCCCC1)C(N)=O)[C@@H](C)O)[C@@H](C)O, also called compound No. 147) [Ac-[D-Pro24, Thr26, Cha27,28,36, Aib31]-PYY(23-36)]
IC50 Ratio (vs PYY(3-36)): 9.3 ratio

binder: [4Amb]RA[4Pal]INLITRQRY-NH2 (N-terminus assumed; SMILES CC[C@H](C)[C@H](NC(=O)[C@H](Cc1ccncc1)NC(=O)[C@H](C)NC(=O)[C@H](CCCNC(=N)N)NC(=O)c1ccc(CN)cc1)C(=O)N[C@@H](CC(N)=O)C(=O)N[C@@H](CC(C)C)C(=O)N[C@H](C(=O)N[C@H](C(=O)N[C@@H](CCCNC(=N)N)C(=O)N[C@@H](CCC(N)=O)C(=O)N[C@@H](CCCNC(=N)N)C(=O)N[C@@H](Cc1ccc(O)cc1)C(N)=O)[C@@H](C)O)[C@@H](C)CC, also called compound No. 44) [4-Aminomethylbenzoyl-[Ala26, Pya(4)27, Ile28,31]-PYY(25-36)]
IC50 Ratio (vs PYY(3-36)): 3.8 ratio

binder: [4Amb]RAYINL[Cha]TRQRY-NH2 (N-terminus assumed; SMILES CC[C@H](C)[C@H](NC(=O)[C@H](Cc1ccc(O)cc1)NC(=O)[C@H](C)NC(=O)[C@H](CCCNC(=N)N)NC(=O)c1ccc(CN)cc1)C(=O)N[C@@H](CC(N)=O)C(=O)N[C@@H](CC(C)C)C(=O)N[C@@H](CC1CCCCC1)C(=O)N[C@H](C(=O)N[C@@H](CCCNC(=N)N)C(=O)N[C@@H](CCC(N)=O)C(=O)N[C@@H](CCCNC(=N)N)C(=O)N[C@@H](Cc1ccc(O)cc1)C(N)=O)[C@@H](C)O, also called compound No. 41) [4-Aminomethylbenzoyl-[Ala26, Ile28, Cha31]-PYY(25-36)]
IC50 Ratio (vs PYY(3-36)): 15 ratio

--- query ---
Query string: Recorded IC50 Ratio (vs PYY(3-36)) of Ac-Y[dP]RH[Cha][Cha]NL[Aib]TRQR[Cha]-NH2 (SMILES CC(=O)N[C@@H](Cc1ccc(O)cc1)C(=O)N1CCC[C@@H]1C(=O)N[C@@H](CCCNC(=N)N)C(=O)N[C@@H](Cc1c[nH]cn1)C(=O)N[C@@H](CC1CCCCC1)C(=O)N[C@@H](CC1CCCCC1)C(=O)N[C@@H](CC(N)=O)C(=O)N[C@@H](CC(C)C)C(=O)NC(C)(C)C(=O)N[C@H](C(=O)N[C@@H](CCCNC(=N)N)C(=O)N[C@@H](CCC(N)=O)C(=O)N[C@@H](CCCNC(=N)N)C(=O)N[C@@H](CC1CCCCC1)C(N)=O)[C@@H](C)O, also called compound No. 162) [Ac-[Tyr23, D-Pro24, Cha27,28,36, Aib31]-PYY(23-36)] , please.
Result string: 5.2 ratio
